Where these numbers come from: paper PMC9894219

Target: Nurr1258 (in Nurr1258-RXRα98 heterodimer);RXRα98 (DBD-hinge-LBD) (human?;human?, UniProt P43354;P19793 258-598;98-462, |)
Sequence (P43354 258-598, chain 1 of 2): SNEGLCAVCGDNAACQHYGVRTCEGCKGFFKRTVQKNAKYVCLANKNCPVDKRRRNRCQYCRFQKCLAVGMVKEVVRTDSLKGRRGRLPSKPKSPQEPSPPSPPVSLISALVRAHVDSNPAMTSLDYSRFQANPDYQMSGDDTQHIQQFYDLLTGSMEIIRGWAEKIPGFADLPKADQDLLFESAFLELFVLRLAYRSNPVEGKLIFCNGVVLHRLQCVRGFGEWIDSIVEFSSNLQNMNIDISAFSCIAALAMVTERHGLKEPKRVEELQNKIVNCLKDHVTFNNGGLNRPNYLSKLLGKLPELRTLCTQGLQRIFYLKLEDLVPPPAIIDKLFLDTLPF
Sequence (P19793 98-462, chain 2 of 2): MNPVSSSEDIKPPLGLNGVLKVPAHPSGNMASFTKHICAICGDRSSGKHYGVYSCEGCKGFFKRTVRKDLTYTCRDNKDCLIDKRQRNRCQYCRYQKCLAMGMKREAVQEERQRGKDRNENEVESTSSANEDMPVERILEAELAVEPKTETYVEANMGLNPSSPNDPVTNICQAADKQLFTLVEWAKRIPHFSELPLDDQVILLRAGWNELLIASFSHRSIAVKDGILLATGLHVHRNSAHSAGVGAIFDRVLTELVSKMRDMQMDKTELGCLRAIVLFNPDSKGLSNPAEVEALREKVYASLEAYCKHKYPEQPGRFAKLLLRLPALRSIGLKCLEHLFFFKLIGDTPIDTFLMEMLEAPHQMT
Test: BLI
recorded endpoint: Kd (nM)
Field format: number, assumed nM, no unit text.

Prompt: Please give the measured Kd for this binder: IR5 biotinylated (dsDNA) DNA 1: AAAGGTCAAACTGTGACCTAT DNA 2: ATAGGTCACAGTTTGACCTTT
Completion: 864
